Entry source: patent US20130345215A1

System: Wnt stimulated TCF transcriptional activity, HEK293-TS 112 TCF reporter cell line
Assay: Tankyrase 1 Assay (Example 119): Wnt3A-stimulated TOPbrite TCF luciferase reporter
Assay type: cell-based
Settings: Compounds I-59 to I-144, procedure in Example 119 (0.5 ug/mL Wnt3A, 16 hours); read-out: TNKS1 (IC50)
quantity: pIC50
Numbers only, as −log10 of the molar value.

[[record]]
compound = "CC(O)Cn1ccc(C2(C)CCN(c3nc4c(cnn4C)c(=O)[nH]3)CC2)n1 (centres unmarked)"
observed_measurement = 7.38


Report pIC50 for each item below.
1. Cn1ncc2c(=O)[nH]c(N3CCN(c4c(F)cc(CC(O)CO)cc4F)CC3)nc21 (centres unmarked)
2. Cn1ncc2c(=O)[nH]c(N3CCN(C4CC5CCC4C5)CC3)nc21 (centres unmarked)
3. O=c1[nH]c(N2CCN(c3c(F)cccc3F)CC2)nc2[nH]ncc12
4. O=c1[nH]c(N2CCN(c3c(F)cc(F)cc3F)CC2)nc2[nH]ncc12
5. COCCOc1cc(F)c(N2CCN(c3nc4c(cnn4CC(C)O)c(=O)[nH]3)CC2)c(F)c1 (centres unmarked)

result:
8.18
7.30
7.85
7.26
6.66

Report pIC50 for each item below.
1. COCCOc1cc(F)c(C2(C#N)CCN(c3nc4c(cnn4C)c(=O)[nH]3)CC2)c(F)c1
2. Cn1ncc2c(=O)[nH]c(N3CCC(Cc4ncccn4)C3)nc21 (centres unmarked)

result:
1. 7.73
2. 6.47
